The measurements presented in this section are drawn from paper PMC7179445.

- Test system: HepG2 cells
- Assay type: cell-based, human
- stated conditions: 72 h
- Experimental: The cytotoxic effects of the prepared compounds on MCF-7 and HepG2 cells were investigated with the help of standard MTT assay. […] Plates were then further incubated for 72 h. Afterwards, 20 μL of MTT (5 mg/mL in PBS) were pipetted to the wells and incubated for another 4 h. The medium was then aspirated and 100 μL DMSO were added/well. Absorbance was read using a microplate reader at 570 nm. […]
pIC50: −log10 of the molar value.
Record Met whenever pIC50 is at 5 or higher; record Not met when lower.

Example entries begin here.
Could you please find out whether CC[C@H](C)[C@H](NC(=O)[C@H](Cc1ccccc1)NC(=O)c1cccc(C(=O)N[C@@H](Cc2ccccc2)C(=O)N[C@H](C(=O)N[C@H](C(=O)OC)[C@@H](C)CC)[C@@H](C)CC)n1)C(=O)N[C@H](C(=O)OC)[C@@H](C)CC has pIC50 that meets 5 or exceeds it?
Not met

Could you please find out whether CC[C@H](C)[C@H](NC(=O)c1cccc(C(=O)N[C@H](C(=O)N[C@H](C(=O)N[C@@H](Cc2ccccc2)C(=O)OC)[C@@H](C)CC)[C@@H](C)CC)n1)C(=O)N[C@H](C(=O)N[C@@H](Cc1ccccc1)C(=O)OC)[C@@H](C)CC has pIC50 that meets 5 or exceeds it?
Not met

Others:
Could you please find out whether CC[C@H](C)[C@@H]1NC(=O)c2cccc(n2)C(=O)N[C@@H]([C@@H](C)CC)C(=O)N[C@@H]([C@@H](C)CC)C(=O)N[C@@H](Cc2ccccc2)C(=O)N[C@H](C(=O)O)CCCCNC(=O)[C@H](Cc2ccccc2)NC(=O)[C@H]([C@@H](C)CC)NC1=O has pIC50 that meets 5 or exceeds it?
Met

Could you please find out whether CC[C@H](C)[C@H](NC(=O)[C@@H](NC(=O)[C@H](Cc1ccccc1)NC(=O)c1cccc(C(=O)N[C@@H](Cc2ccccc2)C(=O)N[C@H](C(=O)N[C@H](C(=O)O)[C@@H](C)CC)[C@@H](C)CC)n1)[C@@H](C)CC)C(=O)O has pIC50 that meets 5 or exceeds it?
Not met

Could you please find out whether CC[C@H](C)[C@H](NC(=O)[C@@H](NC(=O)c1cccc(C(=O)N[C@H](C(=O)N[C@H](C(=O)O)[C@@H](C)CC)[C@@H](C)CC)n1)[C@@H](C)CC)C(=O)O has pIC50 that meets 5 or exceeds it?
Met

Could you please find out whether CC[C@H](C)[C@H](NC(=O)[C@H](Cc1ccccc1)NC(=O)c1cccc(C(=O)N[C@@H](Cc2ccccc2)C(=O)N[C@H](C(=O)O)[C@@H](C)CC)n1)C(=O)O has pIC50 that meets 5 or exceeds it?
Not met

Could you please find out whether CC[C@H](C)[C@@H]1NC(=O)c2cccc(n2)C(=O)N[C@@H]([C@@H](C)CC)C(=O)N[C@@H](Cc2ccccc2)C(=O)N[C@@H]([C@@H](C)CC)C(=O)N[C@H](C(=O)O)CCCCNC(=O)[C@H]([C@@H](C)CC)NC(=O)[C@H](Cc2ccccc2)NC1=O has pIC50 that meets 5 or exceeds it?
Met

Could you please find out whether CC[C@H](C)[C@H](NC(=O)c1cccc(C(=O)N[C@H](C(=O)N[C@@H](Cc2ccccc2)C(=O)N[C@H](C(=O)OC)[C@@H](C)CC)[C@@H](C)CC)n1)C(=O)N[C@@H](Cc1ccccc1)C(=O)N[C@H](C(=O)OC)[C@@H](C)CC has pIC50 that meets 5 or exceeds it?
Not met

* * *

- Test system: HepG2 cells
- Type: cell-based, human
- stated conditions: 72 h
Recorded pIC50 values for a group of compounds are listed next.
Quick note: pIC50 values are minus log10 of concentrations in mol/L.

Supply recorded pIC50 for CC[C@H](C)[C@@H]1NC(=O)[C@H](Cc2ccccc2)NC(=O)c2cccc(n2)C(=O)N[C@@H](Cc2ccccc2)C(=O)N[C@@H]([C@@H](C)CC)C(=O)N[C@@H]([C@@H](C)CC)C(=O)N[C@H](C(=O)OC)CCCCNC(=O)[C@H]([C@@H](C)CC)NC1=O here.
5.02

Supply recorded pIC50 for CC[C@H](C)[C@@H]1NC(=O)c2cccc(n2)C(=O)N[C@@H]([C@@H](C)CC)C(=O)N[C@@H](Cc2ccccc2)C(=O)N[C@@H]([C@@H](C)CC)C(=O)N[C@H](C(=O)OC)CCCCNC(=O)[C@H]([C@@H](C)CC)NC(=O)[C@H](Cc2ccccc2)NC1=O here.
5.14

Supply recorded pIC50 for CC[C@H](C)[C@@H]1NC(=O)c2cccc(n2)C(=O)N[C@@H]([C@@H](C)CC)C(=O)N[C@@H]([C@@H](C)CC)C(=O)N[C@@H](Cc2ccccc2)C(=O)N[C@H](C(=O)OC)CCCCNC(=O)[C@H](Cc2ccccc2)NC(=O)[C@H]([C@@H](C)CC)NC1=O here.
5.14

Supply recorded pIC50 for CC[C@H](C)[C@H](NC(=O)[C@H](Cc1ccccc1)NC(=O)[C@@H](NC(=O)c1cccc(C(=O)N[C@H](C(=O)N[C@@H](Cc2ccccc2)C(=O)N[C@H](C(=O)O)[C@@H](C)CC)[C@@H](C)CC)n1)[C@@H](C)CC)C(=O)O here.
5.02

Supply recorded pIC50 for CC[C@H](C)[C@H](NC(=O)c1cccc(C(=O)N[C@H](C(=O)N[C@H](C(=O)N[C@@H](Cc2ccccc2)C(=O)O)[C@@H](C)CC)[C@@H](C)CC)n1)C(=O)N[C@H](C(=O)N[C@@H](Cc1ccccc1)C(=O)O)[C@@H](C)CC here.
5.09

Supply recorded pIC50 for CC[C@H](C)[C@@H]1NC(=O)[C@H](Cc2ccccc2)NC(=O)c2cccc(n2)C(=O)N[C@@H](Cc2ccccc2)C(=O)N[C@@H]([C@@H](C)CC)C(=O)N[C@@H]([C@@H](C)CC)C(=O)N[C@H](C(=O)O)CCCCNC(=O)[C@H]([C@@H](C)CC)NC1=O here.
5.02

Others:
Supply recorded pIC50 for CC[C@H](C)[C@H](NC(=O)c1cccc(C(=O)N[C@H](C(=O)N[C@@H](Cc2ccccc2)C(=O)O)[C@@H](C)CC)n1)C(=O)N[C@@H](Cc1ccccc1)C(=O)O here.
5.06
